Catalogue of TGI values
System: HCC-2998 colon
assay remarks: NCI tumour cell line growth inhibition, 48 h
experimental readout: TGI (µM)

- molecule: "CCn1c(-c2nonc2N)nc2c(C#CCN)ncc(OCCCN)c21"
  inequality sign: ">"
  data value: 25
- molecule: "O=C(Nc1ccc(I)cc1C(=O)NCCO)c1cccs1"
  inequality sign: ">"
  data value: 100
- molecule: "CCN(CC)CCOC(c1cc(OC)ccc1OC)c1ccc2n1-c1ccccc1OC2 (stereo not drawn)"
  inequality sign: "="
  data value: 20.9
- molecule: "CCCCCCCCCCCCCCCC(=O)NCC(COP(=O)([O-])OCC[N+](C)(C)C)OCC (stereo not drawn)"
  inequality sign: "="
  data value: 3.1
- molecule: "O=[Se]([O-])c1ccccc1.O=[Se]([O-])c1ccccc1.[OH3+].[OH3+].[Pt+2]"
  inequality sign: "="
  data value: 55.9
- molecule: "O=C(CSc1nc2ccc([N+](=O)[O-])cc2[nH]1)Nc1ccc(F)c(Cl)c1"
  inequality sign: "="
  data value: 11.8
- molecule: "Cc1[nH]c(/C=C2\\C(=O)Nc3ccc(S(=O)(=O)Cc4c(Cl)cccc4Cl)cc32)c(C)c1C(=O)N1CCC[C@@H]1CN1CCCC1"
  inequality sign: "="
  data value: 3.6
- molecule: "O=C(c1cccs1)c1c(C(F)(F)F)n([O-])c2ccccc2[n+]1=O"
  inequality sign: "="
  data value: 1.3

###

Catalogue of TGI values
Test system: LOX IMVI melanoma
assay remarks: NCI tumour cell line growth inhibition, 48 h
experimental readout: TGI (µM)

- smiles text: "CC(CO)(CO)N=Cc1cc(I)cc(I)c1O"
  target system: "LOX IMVI melanoma"
  inequality sign: "="
  data value: 24.2
- smiles text: "Cc1cc(=O)cc2sc3c(C)cccc3nc1-2"
  target system: "LOX IMVI melanoma"
  inequality sign: "="
  data value: 39.2
- smiles text: "c1sc(NC2=NCCO2)c2c1CCCC2"
  target system: "LOX IMVI melanoma"
  inequality sign: ">"
  data value: 100
- smiles text: "Clc1ccccc1C(c1ccccc1)(c1ccccc1)n1ccnc1"
  target system: "LOX IMVI melanoma"
  inequality sign: "="
  data value: 4.66
- smiles text: "Fc1cccc(COc2ccc(Nc3ncncc3C#Cc3ccccc3)cc2Cl)c1"
  target system: "LOX IMVI melanoma"
  inequality sign: ">"
  data value: 25
- smiles text: "COc1cc2c(cc1OCCCCCOc1cc3c(cc1OC)C(=O)N1CCC[C@H]1C(=O)N3)N=C[C@@H]1CCCN1C2=O"
  target system: "LOX IMVI melanoma"
  inequality sign: "="
  data value: 0.997

###

Tested on: NCI-H460 lung
assay remarks: NCI tumour cell line growth inhibition, 48 h
Catalogue of TGI values

- compound: "C=C1CCC2C(/C=C(\\C)CCC1O)OC(=O)C2C (stereo not given)"
  readout unit: "µM"
  inequality sign: ">"
  TGI: 100
- compound: "COc1cc2oc(-c3ccc(O)cc3)c(OC3OC(C)C(O)C(O)C3O)c(=O)c2c(O)c1OC (stereo not given)"
  readout unit: "µM"
  inequality sign: ">"
  TGI: 100
- compound: "CN=C(N)N/N=C(\\c1ccccc1)c1ccc(Br)cc1"
  readout unit: "µM"
  inequality sign: "="
  TGI: 9.05
- compound: "O=C1CC2(C[C@@H]3CCCCCCCCC[C@@H](C3)C2)N1 (stereo not given in full)"
  readout unit: "µM"
  inequality sign: "="
  TGI: 38.4
- compound: "Nc1nc(Cl)cc(NCC2(CO)CC(CCc3ccccc3)C2)n1 (stereo not given)"
  readout unit: "µM"
  inequality sign: ">"
  TGI: 100
- compound: "Nc1nc2ncc(SCc3ccc(C(=O)NC(CCC(=O)O)C(=O)O)cc3)cc2c(=O)[nH]1 (stereo not given)"
  readout unit: "µM"
  inequality sign: ">"
  TGI: 100
- compound: "COc1ccc(-c2nn(-c3cccc(Cl)c3)cc2C2CC(c3ccccc3)=NN2C(C)=O)cc1 (stereo not given)"
  readout unit: "µM"
  inequality sign: ">"
  TGI: 100
- compound: "O=C(c1ccc2ccccc2c1)c1c(C(F)(F)F)n([O-])c2cc(Cl)c(Cl)cc2[n+]1=O"
  readout unit: "µM"
  inequality sign: "="
  TGI: 4.15
- compound: "C/C(=N\\NC(=S)NC(C)C)c1nc2ncccc2[nH]1"
  readout unit: "µM"
  inequality sign: ">"
  TGI: 100
- compound: "Cc1cc(=O)cc2sc3c(C)cccc3nc1-2"
  readout unit: "µM"
  inequality sign: "="
  TGI: 57.6
